Target: Mitogen-activated protein kinase kinase kinase 3 (Homo sapiens)
Test: modulators of MEKK3-MEK5 PB1 binding, primary screen, biochemical, wildtype MEKK3, multiplex bead flow cytometry, Alexa488-MEK5 (AID 1529);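 note: Alexa488 bead fluorescence after subtracting the streptavidin-only scavenger bead signal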
Conditions: bead-based flow cytometry, Alexa488-MEK5 binding to MEKK3; at 10 µM; actives lie on both sides; 0 = blocked by unlabeled MEK5, 100 = vehicle
Screen size: about 290,000 compounds; about 4,200 (1.4%) were called active. Shown is part of a subset that was picked to be rich in actives.
Listed next: entries and their corresponding binding response (% of control).

# Molecule, binding response (% of control) (%)
records = [
    ("C/C(=N\\Nc1ncc(Cl)cc1Cl)c1cccs1", 103),
    ("COc1ccc(CNc2nc3c(c(=O)[nH]c(=O)n3C)n2Cc2ccccc2)cc1", 104),
    ("O=c1c2c(-c3ccccc3)ccnc2[nH]n1-c1ccccc1", 109),
    ("COC(=O)c1c(NC(=O)c2ccccc2F)sc2c1C(C(=O)OC)CC2 (stereo not given)", 98),
    ("C=CCOc1cccc(C2NC(=O)c3ccccc3O2)c1 (stereo not given)", 91),
]

* * *

Target: Mitogen-activated protein kinase kinase kinase 3 (Homo sapiens)
Experiment: modulators of MEKK3-MEK5 PB1 binding, primary screen, biochemical, wildtype MEKK3, multiplex bead flow cytometry, Alexa488-MEK5 (AID 1529);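 note: Alexa488 bead fluorescence after subtracting the streptavidin-only scavenger bead signal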
Details: bead-based flow cytometry, Alexa488-MEK5 binding to MEKK3; at 10 µM; actives lie on both sides; 0 = blocked by unlabeled MEK5, 100 = vehicle
The campaign covered roughly 290,000 compounds. About 4,200 (1.4%) were called active. The sample holds actives, similar compounds and a random draw of the others, so the mix is not that of the screen.
Endpoint label: binding response (% of control)

# Compound, Test result
measured = [
    ("O=C(NNc1c2ccccc2nc2ccccc12)c1cc2ccccc2cc1O", "69% [inhibitor] (active)"),
    ("CCOC(=O)CNC(=O)CSc1nc2cccnc2n1CC", "127% (active)"),
    ("CCCNC(=O)CCn1nc(-c2ccccc2)c2ccccc2c1=O", "94% (inactive)"),
    ("COc1ccc(S(=O)(=O)N2CCN(C(=O)N(C)C)C2C)cc1 (configuration not stated)", "102% (inactive)"),
    ("COc1ccccc1CC(=O)Nc1ccc([N+](=O)[O-])cc1OC", "139% (active)"),
    ("O=C(N/N=C/c1cccnc1)c1cc2ccccc2cc1O", "99% (inactive)"),
    ("C=CC1=C(C(=O)O)N2C(=O)[C@@H](NC(=O)/C(=N/OCC(=O)O)c3csc(N)n3)[C@H]2SC1", "97% (inactive)"),
    ("O=c1c2ccccc2c(-c2ccc(Br)cc2)nn1Cc1ccccc1", "109% (inactive)"),
    ("Cc1ccc(NC(=O)CN2CCC(C(N)=O)CC2)cc1[N+](=O)[O-]", "98% (inactive)"),
    ("CCCCCc1c(C)nc(N2CCN(Cc3ccc4c(c3)OCO4)CC2)[nH]c1=O", "98% (inactive)"),
    ("CC(=O)N(c1ccc2oc(=O)sc2c1)S(=O)(=O)c1ccc(C)cc1", "103% (inactive)"),
    ("COc1ccc(CNC(=O)C2CCN(S(=O)(=O)N3CCOCC3)CC2)cc1", "104% (inactive)"),
    ("N#Cc1ccc(CSc2ncccn2)cc1", "101% (inactive)"),
    ("CCOC(=O)CNC(=O)CSc1ncccc1-c1nc2ccccc2[nH]1", "108% (inactive)"),
    ("CC(=O)Nc1ccc(NC(=S)NC(=O)c2ccc([N+](=O)[O-])c(C)c2)cc1", "97% (inactive)"),
    ("O=C(c1cccs1)N(C(=O)c1cccs1)c1ccccn1", "94% (inactive)"),
    ("CC1(C)C=Cc2c(ccc3c2OC[C@@H](c2ccc(O)cc2O)C3)O1", "108% (inactive)"),
    ("CC(C)(C)OC(=O)NNc1c2ccccc2nc2ccccc12", "91% (inactive)"),
    ("NC(=O)C1CCN(C(=O)CC2C(=O)NCCN2Cc2cccc(Oc3ccccc3)c2)CC1 (configuration not stated)", "101% (inactive)"),
    ("Cc1ccc2nc(Nc3ncc4c(n3)CC(C)(C)CC4=O)nc(C)c2c1", "102% (inactive)"),
    ("Cc1c(C)n(Cc2ccc(Cl)cc2)c2ccc(C(=O)NCCCN3CCOCC3)cc12", "106% (inactive)"),
    ("CCc1ccc2nc(Nc3ncc(C(C)=O)c(C)n3)nc(C)c2c1", "49% [inhibitor] (active)"),
    ("O=c1c2ccccc2c(-c2ccccc2)nn1Cc1ccccc1", "134% (active)"),
    ("O=C(NCC1CC1)c1onc(CSc2ccccc2)c1C(=O)NCC1CC1", "97% (inactive)"),
    ("COc1ccc(CNC(=O)CN(Cc2ccccc2Cl)C(=O)c2csnn2)cc1", "104% (inactive)"),
    ("CNC(C)C#Cc1ccc2sc3cc(OC)c(OC)cc3c(=O)c2c1 (configuration not stated)", "110% (inactive)"),
    ("COc1ccccc1CC(=O)Nc1ccc(F)cc1F", "106% (inactive)"),
    ("COc1cc([N+](=O)[O-])ccc1NC(=O)CN1CCCC1", "104% (inactive)"),
    ("COc1ccc(NC(=O)COc2ccc(C(=O)c3ccc(F)cc3)cc2)cc1S(N)(=O)=O", "100% (inactive)"),
    ("COc1ccc(CNC(=O)C2CCN(S(C)(=O)=O)CC2)cc1", "39% [inhibitor] (active)"),
    ("CC1CN(CC(=O)NC(C)c2ccccc2)CC(C)O1 (configuration not stated)", "101% (inactive)"),
    ("CC1CCCN(CC(=O)Nc2cc(Cl)ccc2Oc2ccccc2)C1 (configuration not stated)", "107% (inactive)"),
    ("Cc1cccnc1NC(=O)Cn1c(=O)oc2ccccc21", "103% (inactive)"),
    ("COc1ccccc1Nc1ncc(C(C)=O)c(C)n1", "104% (inactive)"),
    ("Cc1ccc(C(=O)NC(=S)Nc2ccc3[nH]c(=O)[nH]c3c2)cc1C", "145% (active)"),
    ("Cc1cc(C)cc(C(=O)NC(=S)Nc2ccc3[nH]c(=O)[nH]c3c2)c1", "105% (inactive)"),
    ("C=CCn1c(-c2ccc3[nH]c(C)c(C)c3c2)n[nH]c1=S", "105% (inactive)"),
]

Each recorded value in this set is attributed to PubChem BioAssay AID1529.
